Target: α-chymotrypsin (Bos taurus, UniProt P00766)
Construct: purchased Sigma Chem. Co. C-3142
Test: Inhibition of the serine protease α-chymotrypsin (Succ-Ala-Ala-Pro-Phe-AMC hydrolysis)
Format: biochemical
Conditions: pH 7.5, 0.03 mM substrate
Procedure: Additionally,because α-chymotrypsin is not a calcium sensitive enzyme and is constituitively active, following addition of inhibitor stocks to the 96 well plates, 100 ul of a 2 fold concentrated stock of enzyme in dilution buffer was first added and the reaction started by addition of 100 ul of a 2 fold concentrated stock of substrate in assay buffer. Substrate hydrolysis was monitored every 5 minutes up to 30 minutes using a Fluoroskan II ([…]).
result-type: inhibition at 10 µM
Please format your answer as a value with the unit trailing.

Below, each entry is followed by its recorded inhibition at 10 µM result.
Using the record for CC[C@H](NC(=O)[C@H](CC(C)C)NC(=O)OCc1ccccc1)C(=O)COn1nnc2ccccc21 , state its measured inhibition at 10 µM.
34%

Using the record for COc1ccc2nnn(OCC(=O)[C@H](Cc3ccccc3)NC(=O)[C@H](CC(C)C)NC(=O)OCc3ccccc3)c2c1 , state its measured inhibition at 10 µM.
83%

Further cases:
Using the record for CC(C)C[C@H](NC(=O)OCc1ccccc1)C(=O)N[C@@H](Cc1ccccc1)C(=O)COn1nnc2cccnc21 , state its measured inhibition at 10 µM.
81%

---

molecular target: Calpain I (Homo sapiens, UniProt P07384); construct: Calpain I was purified from human red blood cells; from tissue; host or cells: human red blood cells (packed, outdated); assay: Inhibition and rate of inactivation of calpain I (Succ-Leu-Tyr-MNA hydrolysis); type: biochemical; conditions: mean of three or more independent analyses, corrected for substrate, k2 = kapp(1+[S]/Km), read-out: k2 (second order rate constant of inactivation), A = Calpain I
Sequence (P07384 whole entry): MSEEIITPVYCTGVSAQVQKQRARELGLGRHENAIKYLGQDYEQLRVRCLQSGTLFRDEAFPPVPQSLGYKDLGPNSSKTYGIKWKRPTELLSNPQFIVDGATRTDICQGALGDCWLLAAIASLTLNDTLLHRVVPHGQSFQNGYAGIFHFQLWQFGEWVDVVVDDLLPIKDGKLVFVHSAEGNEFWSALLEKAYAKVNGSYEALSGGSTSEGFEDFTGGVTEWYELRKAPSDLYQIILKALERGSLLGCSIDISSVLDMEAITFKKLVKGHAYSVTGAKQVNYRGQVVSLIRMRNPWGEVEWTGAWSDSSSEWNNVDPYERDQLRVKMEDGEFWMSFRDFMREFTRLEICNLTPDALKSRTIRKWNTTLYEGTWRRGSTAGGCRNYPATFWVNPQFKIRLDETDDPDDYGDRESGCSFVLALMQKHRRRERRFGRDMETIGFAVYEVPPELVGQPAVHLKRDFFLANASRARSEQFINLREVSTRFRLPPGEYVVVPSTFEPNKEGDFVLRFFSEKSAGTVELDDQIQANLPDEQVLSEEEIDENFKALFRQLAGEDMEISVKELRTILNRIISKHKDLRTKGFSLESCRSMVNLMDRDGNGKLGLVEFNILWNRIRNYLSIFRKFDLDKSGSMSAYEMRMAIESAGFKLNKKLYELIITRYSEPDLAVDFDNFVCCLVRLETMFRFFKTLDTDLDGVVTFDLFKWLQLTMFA
Sequence (P04632 whole entry partner): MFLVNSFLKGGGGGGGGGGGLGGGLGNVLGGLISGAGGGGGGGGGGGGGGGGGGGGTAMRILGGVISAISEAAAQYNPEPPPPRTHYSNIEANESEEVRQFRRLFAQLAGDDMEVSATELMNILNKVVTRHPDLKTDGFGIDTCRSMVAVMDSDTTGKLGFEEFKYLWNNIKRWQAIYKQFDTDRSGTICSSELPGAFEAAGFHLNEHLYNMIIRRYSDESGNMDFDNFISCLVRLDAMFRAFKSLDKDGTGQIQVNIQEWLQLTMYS
result-type: kinact/KI (M⁻¹ s⁻¹)
Reply numerically in M⁻¹ s⁻¹, unit not repeated.

Using the record for CC(C)C[C@H](NC(=O)OCc1ccccc1)C(=O)N[C@@H](Cc1ccccc1)C(=O)COn1nnc2ccc(-c3ccccc3)cc21 [Example 15] , state its measured kinact/KI.
77000

Using the record for COc1cc2nnn(OCC(=O)[C@H](Cc3ccccc3)NC(=O)[C@H](CC(C)C)NC(=O)OCc3ccccc3)c(=O)c2cc1OC [Example 29] , state its measured kinact/KI.
171000

Using the record for CC(C)C[C@H](NC(=O)OCc1ccccc1)C(=O)N[C@@H](Cc1ccccc1)C(=O)COn1nnc2ccccc2c1=O [Example 28] , state its measured kinact/KI.
122000

Using the record for CC(C)C[C@H](NC(=O)OCc1ccccc1)C(=O)N[C@@H](Cc1ccccc1)C(=O)COn1nnc2ccc(C(F)(F)F)cc21 [Example 7] , state its measured kinact/KI.
160000

Using the record for CC(C)C[C@H](NC(=O)OCc1ccccc1)C(=O)N[C@@H](Cc1ccccc1)C(=O)COn1nnc2c(Cl)c(Cl)c(Cl)c(Cl)c21 [Example 20] , state its measured kinact/KI.
1300

---

biological target: α-chymotrypsin (Bos taurus); construct: purchased Sigma Chem. Co. C-3142; experiment: Inhibition of the serine protease α-chymotrypsin (Succ-Ala-Ala-Pro-Phe-AMC hydrolysis); type: biochemical; details: pH 7.5, 0.03 mM substrate
result-type: inhibition at 10 µM

Using the record for Cc1cc2nnn(OCC(=O)[C@H](Cc3ccccc3)NC(=O)[C@H](CC(C)C)NC(=O)OCc3ccccc3)c2cc1Cl [Example 11] , state its measured inhibition at 10 µM.
100%

Using the record for CC(C)C[C@H](NC(=O)OCc1ccccc1)C(=O)N[C@@H](Cc1ccccc1)C(=O)COn1nnc2ccc(F)cc21 [Example 10] , state its measured inhibition at 10 µM.
89%

Using the record for Cc1cccc2c1nnn2OCC(=O)[C@H](Cc1ccccc1)NC(=O)[C@H](CC(C)C)NC(=O)OCc1ccccc1 [Example 12] , state its measured inhibition at 10 µM.
94%

--- query ---
Using the record for CC(C)C[C@H](NC(=O)OCc1ccccc1)C(=O)N[C@@H](Cc1ccccc1)C(=O)COn1cnc2ccccc21 [Example 22] , state its measured inhibition at 10 µM.
91%
